Data origin: paper doi:10.1101/209783v1

- Target desc: Kir6.2/SUR2A KATP channel (mKir6.2 + rSUR2A) (Rattus norvegicus, UniProt Q61743+Q63563)
- Sequence (Q63563 whole entry): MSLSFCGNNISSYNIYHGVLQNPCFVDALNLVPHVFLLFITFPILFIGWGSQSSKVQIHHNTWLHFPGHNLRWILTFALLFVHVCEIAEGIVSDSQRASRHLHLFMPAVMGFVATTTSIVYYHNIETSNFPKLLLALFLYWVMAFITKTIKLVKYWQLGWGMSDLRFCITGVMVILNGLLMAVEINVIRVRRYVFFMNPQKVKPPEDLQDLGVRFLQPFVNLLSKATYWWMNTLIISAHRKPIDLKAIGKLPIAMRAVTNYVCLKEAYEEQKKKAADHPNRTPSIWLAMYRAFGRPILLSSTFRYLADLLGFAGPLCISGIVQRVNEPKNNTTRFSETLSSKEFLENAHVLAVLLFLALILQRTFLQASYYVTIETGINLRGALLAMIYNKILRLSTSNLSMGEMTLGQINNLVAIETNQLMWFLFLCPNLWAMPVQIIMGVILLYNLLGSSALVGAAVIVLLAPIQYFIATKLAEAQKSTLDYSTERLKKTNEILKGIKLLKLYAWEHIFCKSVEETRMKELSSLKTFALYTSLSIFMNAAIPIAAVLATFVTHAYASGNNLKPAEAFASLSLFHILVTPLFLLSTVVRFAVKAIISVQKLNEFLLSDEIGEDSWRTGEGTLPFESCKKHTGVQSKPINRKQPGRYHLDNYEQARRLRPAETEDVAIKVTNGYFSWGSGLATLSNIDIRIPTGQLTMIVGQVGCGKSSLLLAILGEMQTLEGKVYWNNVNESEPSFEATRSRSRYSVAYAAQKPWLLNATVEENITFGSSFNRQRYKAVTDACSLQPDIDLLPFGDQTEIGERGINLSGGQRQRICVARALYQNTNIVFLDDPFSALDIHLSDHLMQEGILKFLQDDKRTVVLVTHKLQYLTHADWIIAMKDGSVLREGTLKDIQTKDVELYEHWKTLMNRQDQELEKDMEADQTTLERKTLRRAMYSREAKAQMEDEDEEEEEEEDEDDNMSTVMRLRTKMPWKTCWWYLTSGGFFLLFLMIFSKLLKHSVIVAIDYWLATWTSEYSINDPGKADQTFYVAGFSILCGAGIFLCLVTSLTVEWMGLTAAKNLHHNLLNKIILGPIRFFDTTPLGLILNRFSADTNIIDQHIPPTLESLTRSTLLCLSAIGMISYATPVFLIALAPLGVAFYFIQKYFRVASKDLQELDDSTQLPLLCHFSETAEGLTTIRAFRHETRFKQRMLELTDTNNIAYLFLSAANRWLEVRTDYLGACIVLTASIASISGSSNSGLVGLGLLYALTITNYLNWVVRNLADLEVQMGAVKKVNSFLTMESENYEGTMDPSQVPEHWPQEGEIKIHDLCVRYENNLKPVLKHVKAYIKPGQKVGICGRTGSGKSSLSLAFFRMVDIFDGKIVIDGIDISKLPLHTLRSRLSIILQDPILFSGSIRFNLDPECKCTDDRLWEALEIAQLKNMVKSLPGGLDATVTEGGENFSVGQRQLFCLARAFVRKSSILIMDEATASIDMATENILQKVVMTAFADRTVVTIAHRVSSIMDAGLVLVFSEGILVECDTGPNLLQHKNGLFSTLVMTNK
- Sequence (Q61743 whole entry): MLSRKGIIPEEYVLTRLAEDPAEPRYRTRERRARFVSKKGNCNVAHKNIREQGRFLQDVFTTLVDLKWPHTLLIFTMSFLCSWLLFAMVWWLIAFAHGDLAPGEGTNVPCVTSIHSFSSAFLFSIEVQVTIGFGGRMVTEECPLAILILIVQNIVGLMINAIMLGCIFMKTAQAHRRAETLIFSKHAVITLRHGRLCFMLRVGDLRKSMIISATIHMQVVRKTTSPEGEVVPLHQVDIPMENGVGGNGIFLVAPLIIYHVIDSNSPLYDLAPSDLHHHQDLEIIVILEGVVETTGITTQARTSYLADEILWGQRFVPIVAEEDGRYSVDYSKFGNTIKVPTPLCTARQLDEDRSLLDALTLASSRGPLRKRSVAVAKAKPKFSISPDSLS
- Method summary: inside-out excised patch clamp, Hill fit
pIC50: −log10 of the molar value.
Observable: pIC50

I = Nc1ncnc2c1ncn2[C@@H]1O[C@H](COP(=O)(O)OP(=O)(O)OP(=O)(O)O)[C@@H](O)[C@H]1O
II = COc1ccc(Cl)cc1C(=O)NCCc1ccc(S(=O)(=O)NC(=O)NC2CCCCC2)cc1 [glibenclamide]
stdin: // compare measured pIC50, left I , right II , return larger # respond with the chosen item's label
stdout: II
(II: 7.71, I: 4.84)
